- Tested on: VEGF-121 (Homo sapiens), P15692-9
- Sequence: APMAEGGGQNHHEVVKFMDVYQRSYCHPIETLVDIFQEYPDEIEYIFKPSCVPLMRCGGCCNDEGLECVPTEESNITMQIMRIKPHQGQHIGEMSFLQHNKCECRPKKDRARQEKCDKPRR
- PROCEDURE SUMMARY: filter
- TEST SETTINGS: P=Nap-dU; C3 spacer at 3
PROPERTY MEASURED: Kd (nM)
Numbers only, in nM.

Task: For the sequence CCTCCATCAGCCGTTCAAGTGCTTGTAGGATTTAAATGGAATTGGAGGA [4867-15_26] , what Kd is on record?
Result: 0.2

###

- TARGET SYSTEM: PDGF-BB (platelet-derived growth factor BB) (Homo sapiens)
- PROCEDURE SUMMARY: filter
- TEST SETTINGS: as 4149-8_379; PS 9,15,17
PROPERTY MEASURED: pKd
Answers are plain numbers, as −log10 of the molar value.

Task: For the sequence TTACGTTACCGCGTTTATAGCG [4149-8_432] , what pKd is on record?
Result: 10.54

###

- Test system: VEGF-121 (Homo sapiens), P15692-9
- Sequence: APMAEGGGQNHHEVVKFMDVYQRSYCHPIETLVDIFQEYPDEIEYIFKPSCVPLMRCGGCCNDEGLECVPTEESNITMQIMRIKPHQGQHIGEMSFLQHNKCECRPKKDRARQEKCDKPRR
- PROCEDURE SUMMARY: filter
- TEST SETTINGS: as 4867-31_192; PS 24,25,26
PROPERTY MEASURED: Kd (nM)
Numbers only, in nM.

Task: For the sequence CCGTTCAAGTGCTTGTAGGATTTAAATGG [4867-31_482] , what Kd is on record?
Result: 0.024

###

- System: VEGF-121 (Homo sapiens), P15692-9
- Sequence: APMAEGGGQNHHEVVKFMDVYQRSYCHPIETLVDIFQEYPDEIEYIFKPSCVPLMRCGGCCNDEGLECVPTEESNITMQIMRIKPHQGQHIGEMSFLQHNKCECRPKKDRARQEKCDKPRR
- PROCEDURE SUMMARY: filter
- TEST SETTINGS: P=Nap-dU; C3 spacer at 48
PROPERTY MEASURED: pKd
Answers are plain numbers, as −log10 of the molar value.

Task: For the sequence CCCTCCATCAGCCGTTCAAGTGCTTGTAGGATTTAAATGGAATTGGAGA [4867-15_71] , what pKd is on record?
Result: 9.62

###

- TARGET SYSTEM: PDGF-BB (platelet-derived growth factor BB) (Homo sapiens) (UniProt P01127)
- Sequence (P01127 82-190): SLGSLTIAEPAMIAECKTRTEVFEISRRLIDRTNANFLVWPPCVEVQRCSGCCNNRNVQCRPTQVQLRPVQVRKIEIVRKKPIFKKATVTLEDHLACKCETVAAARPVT
- PROCEDURE SUMMARY: filter
- TEST SETTINGS: NapdU at P; 2'-OMe 13
PROPERTY MEASURED: Kd
Write the numeric value and follow it with the unit.

Task: For the sequence CGACAGCATGTATGCACATCT [5169-4_51] , what Kd is on record?
Result: 0.32 nM

###

- TARGET SYSTEM: PDGF-BB (platelet-derived growth factor BB) (Homo sapiens) (UniProt P01127)
- PROCEDURE SUMMARY: filter
- TEST SETTINGS: as 4149-8_379; BndU 2; NapdU 16; PS 9,15,17
PROPERTY MEASURED: pKd
One number for each entry, as −log10 of the molar value.

Task: For the sequence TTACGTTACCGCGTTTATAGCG [4149-8_435] , what pKd is on record?
Result: 10.80
